Molecular target: human serum albumin (human) (UniProt P02768)
Sequence (P02768 25-609 limits assumed): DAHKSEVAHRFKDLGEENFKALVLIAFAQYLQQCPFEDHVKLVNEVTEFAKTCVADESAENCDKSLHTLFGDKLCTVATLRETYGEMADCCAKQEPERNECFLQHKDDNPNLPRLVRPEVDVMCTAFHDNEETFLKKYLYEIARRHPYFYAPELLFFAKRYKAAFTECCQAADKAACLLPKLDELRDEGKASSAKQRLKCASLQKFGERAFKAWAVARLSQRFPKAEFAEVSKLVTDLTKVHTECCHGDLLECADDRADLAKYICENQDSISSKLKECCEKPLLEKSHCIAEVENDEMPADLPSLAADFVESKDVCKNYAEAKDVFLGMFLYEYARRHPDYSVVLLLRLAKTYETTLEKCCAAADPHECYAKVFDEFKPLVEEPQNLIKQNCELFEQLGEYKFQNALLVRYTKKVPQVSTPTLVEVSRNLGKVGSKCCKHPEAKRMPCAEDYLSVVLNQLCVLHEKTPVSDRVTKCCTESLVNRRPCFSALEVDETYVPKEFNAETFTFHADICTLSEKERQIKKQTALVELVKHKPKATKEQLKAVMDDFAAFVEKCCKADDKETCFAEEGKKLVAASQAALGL
Assay: screening ELISA
HSA reference
readout label: HSA

INSERT INTO measurements (binder, number) VALUES
  ('SEQ ID NO 124 (designed binder) MLPAPKNLVVSRVTEDSARLSWTAPDAAFDSFSIDYPEFPVRGEAIVLTVPGSERSYDLTGLKPGTEYAVTIWGVKGGFTSQPLSAIFTT', 3450),
  ('SEQ ID NO 180 (designed binder) MLPAPKNLVVSRVTEDSARLSWTAPDAAFDSFEISYYEMRGYGEAIVLTVPGSERSYDLTGLKPGTEYSVLIHGVEGGDYSSPLSAISTT', 33500),
  ('SEQ ID NO 221 (designed binder) MLPAPKNLVVSRVTEDSARLSWTAPDAAFDSFHISYQEVVAEGEAIYLRVPGSERSYDLTGLKPGTEYYVLIHGVKGGYESKPLDASFTT', 3650),
  ('SEQ ID NO 122 (designed binder) MLPAPKNLVVSRVTEDSARLSWTAPDAAFDSFQIPYWEQSLGGEAIVLTVPGSERSYDLTGLKPGTEYEVWIEGVKGGDLSFPLSAISTT', 29600);
